Molecular target: 5-hydroxytryptamine receptor 1B (Rattus norvegicus) (UniProt P28564)
Sequence (P28564 whole entry): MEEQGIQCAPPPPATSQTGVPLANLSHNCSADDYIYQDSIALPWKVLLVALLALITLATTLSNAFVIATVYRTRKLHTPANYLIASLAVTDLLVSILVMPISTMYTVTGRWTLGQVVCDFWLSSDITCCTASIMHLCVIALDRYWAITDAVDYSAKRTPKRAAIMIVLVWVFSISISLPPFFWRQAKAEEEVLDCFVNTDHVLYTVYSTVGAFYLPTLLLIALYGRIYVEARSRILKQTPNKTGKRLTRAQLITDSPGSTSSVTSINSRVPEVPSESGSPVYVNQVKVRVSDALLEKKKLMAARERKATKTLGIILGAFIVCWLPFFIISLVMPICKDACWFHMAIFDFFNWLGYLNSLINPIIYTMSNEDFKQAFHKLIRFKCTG
Assay: Concentration necessary to achieve half maximal inhibition of [125I]- Iodocyanopindolol binding to 5-hydroxytryptamine 1B receptor at 1 uM
Reported Change values are given for each entry in this list.
Write the number in % without appending the unit.

Query :: Param readout = Change; param system = 5-hydroxytryptamine receptor 1B (Rattus norvegicus) (UniProt P28564); param query = CN1CCC=C2c3cc(O)ccc3OCC21 (stereo unspecified) ; response: value
Result :: -6

Query :: Test system 5-hydroxytryptamine receptor 1B (Rattus norvegicus) (UniProt P28564); read-out Change; what value for "CCCCN1CCC[C@@H]2c3cccc(O)c3OC[C@H]21" ?
Result :: 0

Query :: So what Change did "CCCN1CCC[C@@H]2c3cc(O)ccc3OC[C@H]21" get with 5-hydroxytryptamine receptor 1B (Rattus norvegicus) (UniProt P28564)?
Result :: -1

Query :: Request body: readout Change, system 5-hydroxytryptamine receptor 1B (Rattus norvegicus) (UniProt P28564), query CCCN1CCC=C2c3cccc(O)c3OCC21 (stereo unspecified) . Return the value.
Result :: -1

Query :: Query Change on 5-hydroxytryptamine receptor 1B (Rattus norvegicus) (UniProt P28564) for CCCN1CCC=C2c3cc(O)ccc3OCC21 (stereo unspecified)
Result :: 0

Query :: Return Change measured with 5-hydroxytryptamine receptor 1B (Rattus norvegicus) (UniProt P28564) given this compound: "CCCN1CCC[C@@H]2c3ccc(O)cc3OC[C@H]21"
Result :: -1

Query :: Checklist item: Change tested on 5-hydroxytryptamine receptor 1B (Rattus norvegicus) (UniProt P28564), entry "CCCN1CCC[C@@H]2c3c(OC)cccc3OC[C@H]21" , value?
Result :: -19

Query :: Under 5-hydroxytryptamine receptor 1B (Rattus norvegicus) (UniProt P28564): Change value of "CCCN1CCC[C@@H]2c3c(O)cccc3OC[C@H]21" ?
Result :: -4

----------
Target: Serotonin 2 (5-HT2) receptor (Rattus norvegicus, UniProt P30994+P08909+P14842)
Assay: Concentration necessary to achieve half maximal inhibition of [3H]ketanserin binding to 5-hydroxytryptamine 2 receptor at 1 uM
Format: protein assay
QUANTITY MEASURED: IC50 (nM)
State just the number; it will be interpreted in nM.

Recorded results for 5 compounds are shown here.
{"STRUCTURE SMILES STRING": "COc1cccc2c1OC[C@@H]1[C@@H]2CCCN1C", "VALUE UNIT": "nM", "READOUT NUMBER": 920}
{"STRUCTURE SMILES STRING": "CN(C)CCCSc1ccccc1NC(=O)/C=C/c1ccccc1", "VALUE UNIT": "nM", "READOUT NUMBER": 2}
{"STRUCTURE SMILES STRING": "CCCN1CCC[C@@H]2c3cccc(O)c3OC[C@H]21", "VALUE UNIT": "nM", "READOUT NUMBER": 1100}
{"STRUCTURE SMILES STRING": "CCCN1CCC[C@@H]2c3c(OC)cccc3OC[C@H]21", "VALUE UNIT": "nM", "READOUT NUMBER": 114}
{"STRUCTURE SMILES STRING": "CCCN1CCC[C@@H]2c3c(O)cccc3OC[C@H]21", "VALUE UNIT": "nM", "READOUT NUMBER": 384}

Query :: Query the reported IC50 for Serotonin 2 (5-HT2) receptor (Rattus norvegicus, UniProt P30994+P08909+P14842); item: "CN1CCC[C@@H]2c3cccc(O)c3OC[C@H]21"
Result :: 1260

Query :: Which IC50 is reported with Serotonin 2 (5-HT2) receptor (Rattus norvegicus, UniProt P30994+P08909+P14842) for this entry: "COc1cc(C)cc2c1[C@H]1CCCN(C)[C@@H]1CO2" ?
Result :: 42
